These entries and their values trace back to patent US20020019536A1.

target: 2,3-epoxysqualene-lanosterol-cyclase (Rattus norvegicus, UniProt P48450); construct: Measuring the in-vivo Activity in the Rat after Oral Administration; from tissue; host or cells: living rat; 2,3-epoxysqualene measured in the liver; assay: In-vivo activity in the rat after oral administration: 2,3-epoxysqualene level in the liver; details: 0.03 mg/kg oral, 8 h after administration
Sequence (P48450 whole entry): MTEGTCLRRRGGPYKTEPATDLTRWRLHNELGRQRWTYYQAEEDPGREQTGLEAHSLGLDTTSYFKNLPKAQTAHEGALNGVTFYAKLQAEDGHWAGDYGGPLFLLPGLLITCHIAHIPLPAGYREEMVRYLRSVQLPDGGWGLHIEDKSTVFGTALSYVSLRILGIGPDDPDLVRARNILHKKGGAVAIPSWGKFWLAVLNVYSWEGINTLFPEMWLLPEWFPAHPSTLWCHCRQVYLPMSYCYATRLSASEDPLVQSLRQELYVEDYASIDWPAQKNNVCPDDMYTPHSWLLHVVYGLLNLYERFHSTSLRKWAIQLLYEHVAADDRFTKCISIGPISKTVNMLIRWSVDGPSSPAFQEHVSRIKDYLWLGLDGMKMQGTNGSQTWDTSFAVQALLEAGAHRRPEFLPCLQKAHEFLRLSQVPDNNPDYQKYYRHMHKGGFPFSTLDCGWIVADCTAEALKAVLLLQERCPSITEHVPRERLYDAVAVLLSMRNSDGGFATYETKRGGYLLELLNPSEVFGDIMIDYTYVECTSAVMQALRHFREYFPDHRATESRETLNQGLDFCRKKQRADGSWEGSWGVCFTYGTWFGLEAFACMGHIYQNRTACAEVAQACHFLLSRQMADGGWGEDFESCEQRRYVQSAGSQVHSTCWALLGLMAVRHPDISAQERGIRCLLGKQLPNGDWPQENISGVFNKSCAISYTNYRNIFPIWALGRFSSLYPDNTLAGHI
experimental-readout: 2,3-epoxysqualene concentration in the liver (rat) (µg/g)

Recorded 2,3-epoxysqualene concentration in the liver (rat), per entry:
compound	target-or-test-system	measurement-unit	val
CN(C)Cc1ccc([C@H]2CC[C@H](N(C)C(=S)SCc3ccc(F)cc3)CC2)cc1.Cl [C]	2,3-epoxysqualene-lanosterol-cyclase (Rattus norvegicus, UniProt P48450)	µg/g	57.8
CN(C)Cc1ccc([C@H]2CC[C@H](N(C)C(=S)SCc3cccc(F)c3)CC2)cc1.Cl [B]	2,3-epoxysqualene-lanosterol-cyclase (Rattus norvegicus, UniProt P48450)	µg/g	57.1

[A] CN(C)Cc1ccc([C@H]2CC[C@H](N(C)C(=O)Sc3ccc(Cl)cc3)CC2)cc1.Cl [H]
[B] CN(C)Cc1ccc([C@H]2CC[C@H](N(C)C(=S)Oc3ccc(Cl)cc3)CC2)cc1.Cl [G]
[C] CN(C)Cc1ccc([C@H]2CC[C@H](N(C)C(=S)Sc3ccc(Cl)cc3)CC2)cc1 [A]
Req: Could you please order the items by 2,3-epoxysqualene concentration in the liver (rat), going from the lowest number to the highest? Response field: labels, in requested order.
Resp: A, B, C
